B1: MATN2 (parent)
chain: FSLKTFKRKSEVERAVKRMRHLST

# Variants of: B1
# ASSAY_COMMENT: protein stability index of a GFP-peptide fusion (GPS, HEK-293T) (PSI 1-6); higher = more stable;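 further: lentivirally expressed fusions sorted by FACS into six bins by GFP to DsRed ratio, PSI derived from sequencing read proportions per bin multiplied by bin number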
# EXPERIMENTAL_CONTEXT: c terminus: a fixed tail appended
Give measured protein stability index for each item. Keep answers brief.
Lab note: write the figure by itself, no unit.

Value of protein stability index reported for the variant FSLKTFKHKSEVERAVKRMRHLST [R8H] is 3.3

Per the records, this variant ( FSLKTFKRKSEVERAVKRMHHLST [R20H] ) has protein stability index equal to 2

Data point: FSLKTFKRWSEVERAVKRMRHLST [K9W] ; protein stability index = 3.18

The variant listed as FSRKTFKRKSEVERAVKRMRHLST [L3R] has a reported protein stability index of 3

Per the records, this variant ( FRLKTFKRKSEVERAVKRMRHLST [S2R] ) has protein stability index equal to 2.36

The variant listed as FSLKTFKRKSESERAVKRMRHLST [V12S] shows protein stability index equal to 2.98

variant FSLKTFKRKSEVERAVIRMRHLST [K17I] , protein stability index observed: 2.04

Notebook: FSLKTFKRKSEVERAVKMMRHLST [R18M] , protein stability index read as 1.93

Reported protein stability index ( FSLKTFKRKSEGERAVKRMRHLST [V12G] ) = 2.91

Consider FSLKTFKRKSEVERYVKRMRHLST [A15Y] . Its measured protein stability index is 1.59

For record FSLKTFYRKSEVERAVKRMRHLST [K7Y] the listed protein stability index is 1.77

Item: FSLKTFKRKSEVERAVDRMRHLST [K17D] | protein stability index: 2.92

// sample FSLKTFKRKSEVERAVKRMRHLWT [S23W] , its protein stability index was 1.72

Form field protein stability index, entry FSLKTFKRKSEVECAVKRMRHLST [R14C] : 1.83

protein stability index reported for this variant FSLKTFKMKSEVERAVKRMRHLST [R8M] : 3.23

Lab note: measured protein stability index of FSLKTFKRKSEVERAVKRMRKLST [H21K] was 3.76

Note to self: protein stability index recorded for FSLKTPKRKSEVERAVKRMRHLST [F6P] was 2.67

// protein stability index value for FSLKTFKRKSERERAVKRMRHLST [V12R] : 3.19

// protein stability index value for FSLKTFKRKSELERAVKRMRHLST [V12L] : 2.56

Entry FSLKTFFRKSEVERAVKRMRHLST [K7F] ; protein stability index = 1.83

Briefly, protein stability index measured for FSLKTFKRKSEVERPVKRMRHLST [A15P] : 2.43

The value of protein stability index measured for the variant FQLKTFKRKSEVERAVKRMRHLST [S2Q] turned out to be 3.07

# protein stability index of FSLKTFKRKSEVERMVKRMRHLST [A15M] = 2.2

Please fill in: protein stability index reported for FSLKTFKRKSEVHRAVKRMRHLST [E13H] = 2.37

protein stability index in this record for FSLKTFKRKSEVERAVKRMRELST [H21E] : 2.28

Note to self: protein stability index recorded for FSLKTFKRKSEVERCVKRMRHLST [A15C] was 2.27

For this variant ( FSQKTFKRKSEVERAVKRMRHLST [L3Q] ), measured protein stability index is 2.23

Given item FSLKTFKRKYEVERAVKRMRHLST [S10Y] , the value recorded as its protein stability index is 2.3

Per the records, this variant ( FSLKTFKRKSEVERAVKRMRHGST [L22G] ) has protein stability index equal to 2.79

Reported protein stability index ( FSLKTFKRKSEVERALKRMRHLST [V16L] ) = 1.51

Lab book: protein stability index of FSLKTFKGKSEVERAVKRMRHLST [R8G] noted as 2.43

FSLKTFKRKSEVERAVKRMRHHST [L22H] has a reported protein stability index of 2.59

Briefly, protein stability index measured for FSLKTFKRKSEVERAGKRMRHLST [V16G] : 2.71

Form field protein stability index, entry FSLETFKRKSEVERAVKRMRHLST [K4E] : 1.8

Lab note: measured protein stability index of FSLKYFKRKSEVERAVKRMRHLST [T5Y] was 1.89

Record summary for FSFKTFKRKSEVERAVKRMRHLST [L3F] : reported protein stability index = 2.23

Quick note, protein stability index for FSLKTFKRKSEVERAVKRMRDLST [H21D] landed at 2.76

For FSHKTFKRKSEVERAVKRMRHLST [L3H] the variant record lists protein stability index as 2.78

Lab book: protein stability index of DSLKTFKRKSEVERAVKRMRHLST [F1D] noted as 2.77

For FSLKSFKRKSEVERAVKRMRHLST [T5S] the variant record lists protein stability index as 2.4

Just so you know, measured protein stability index for TSLKTFKRKSEVERAVKRMRHLST [F1T] came out at 3.02

Sample FSLKTFKRKSEVERAVKRMRHLSL [T24L] ; protein stability index observed: 2.4

The recorded protein stability index for entry FSLKTFKRKSEVERAVKRMRHLSG [T24G] equals 3.01

FSLKTFKRKSEVEGAVKRMRHLST [R14G] yielded protein stability index of 2.15

Lookup result for FSLKTFKRKSEVEHAVKRMRHLST [R14H] ; measured protein stability index: 2.28

variant FSLKTFKRNSEVERAVKRMRHLST [K9N] , protein stability index observed: 1.65

Entry FSLKTFKRKSEVERAVKRMMHLST [R20M] ; protein stability index = 2.08

The variant FSLKTFKRKSEVMRAVKRMRHLST [E13M] showed protein stability index equal to 2.25

Please fill in: protein stability index reported for FSLKTFKRKSEVERAVKRPRHLST [M19P] = 2.14

protein stability index reported for this variant FSLKTFKRKSEVNRAVKRMRHLST [E13N] : 2.83

The reported value for FSTKTFKRKSEVERAVKRMRHLST [L3T] in terms of protein stability index is 2.3

FSLKTFKRKSEVERAVKRMRHLSY [T24Y] yielded protein stability index of 2.23

Value of measured protein stability index for the entry FSLQTFKRKSEVERAVKRMRHLST [K4Q] : 2.45

So, FSLKTFKRKSEMERAVKRMRHLST [V12M] ? Its protein stability index was 2.11

For FSLKTFKRKSEVERAVKRMLHLST [R20L] the variant record lists protein stability index as 2.81

Entry FSLKTFKRKSEEERAVKRMRHLST [V12E] — recorded protein stability index = 2.34

The recorded protein stability index for FSLKTFKRKSEVERAVKRMKHLST [R20K] is 2.59

protein stability index recorded for this variant, FSLKTFKRKSEVERIVKRMRHLST [A15I] , is 1.38

// protein stability index value for FSLKTFKRKSETERAVKRMRHLST [V12T] : 2.38

# protein stability index of FSLKTFKRKSEVARAVKRMRHLST [E13A] = 2

For record FSLKDFKRKSEVERAVKRMRHLST [T5D] the listed protein stability index is 2.75

For record FSLKTFKRKSEVERAVKDMRHLST [R18D] the listed protein stability index is 2.8

// recorded protein stability index for FSLKTFKRKSEVERAVMRMRHLST [K17M] : 2.53

The value of protein stability index measured for the variant FSLKTFKRKSEVERAVKRNRHLST [M19N] turned out to be 2.68

The reported protein stability index of the variant FSLKTFKRKSEVERAVKRMSHLST [R20S] was 2.42

The reported protein stability index of the variant FSLKTFKRKLEVERAVKRMRHLST [S10L] was 1.39

# protein stability index of FSLKTFKRKSEVERAVKWMRHLST [R18W] = 2.04

Entry FSLKAFKRKSEVERAVKRMRHLST [T5A] ; protein stability index = 1.94

Consider FSLKTFKRKSEVERAVKRMRTLST [H21T] . Its measured protein stability index is 2.72

Field protein stability index (entry FSLKTFKRKSEVERAVKRMVHLST [R20V] ) reads 1.6

Reported protein stability index of FSLKTLKRKSEVERAVKRMRHLST [F6L] : 2.55

The variant listed as FSLKTFKRKSEVERTVKRMRHLST [A15T] has a reported protein stability index of 2.78

According to the records, this variant FSLKTFKRKSAVERAVKRMRHLST [E11A] displays protein stability index of 2.52

Short answer for FSLKTFKRKSEVERAVKRMRHLTT [S23T] : protein stability index was 1.89

Measured protein stability index of FSLKTFKRKSEVETAVKRMRHLST [R14T] : 2.87

Field protein stability index (entry FSLKTFKRKSEVERAVKRMRPLST [H21P] ) reads 2.58

Field protein stability index (entry FSLKTFKRKSDVERAVKRMRHLST [E11D] ) reads 2.39

protein stability index reading for FSLKTFKRKSEVERAVKPMRHLST [R18P] : 2.36

Quick note, protein stability index for FSLKTFKRKSEVERAVKRMRHCST [L22C] landed at 2.79

The variant listed as FSLKTFKRKSEVERAVKRYRHLST [M19Y] shows protein stability index equal to 2.5

According to the records, this variant FSLKTFKRKSEVERAFKRMRHLST [V16F] displays protein stability index of 3.4

The variant listed as FSLKTFKRKSEVERAVKRMRHLIT [S23I] shows protein stability index equal to 2.8

Form field protein stability index, entry FSLPTFKRKSEVERAVKRMRHLST [K4P] : 2.58

FSLKTFKRKSEVERAVKRMCHLST [R20C] has a reported protein stability index of 2.4

protein stability index measured on FSLKTFKRKSEVERAVKRMRQLST [H21Q] = 1.87

The variant identified as FPLKTFKRKSEVERAVKRMRHLST [S2P] registered its protein stability index at 2.42

In plain terms, FSLKTFKRKSEVERAVKRQRHLST [M19Q] has a documented protein stability index of 2.57

// FSLKTFKRKSEVERAVKRMRHDST [L22D] : protein stability index value = 2.96

Recorded protein stability index (variant FSLKTFHRKSEVERAVKRMRHLST [K7H] ): 2.05

get_value(item= FSLKTFKRKSEVERAVKRMRFLST [H21F] , readout=protein stability index) returns 1.99

What the record says about FSLKTFKRKSEVERADKRMRHLST [V16D] : protein stability index is 2.15
